Target: LAR (Homo sapiens, UniProt P10586)
Sequence (P10586 30-1907): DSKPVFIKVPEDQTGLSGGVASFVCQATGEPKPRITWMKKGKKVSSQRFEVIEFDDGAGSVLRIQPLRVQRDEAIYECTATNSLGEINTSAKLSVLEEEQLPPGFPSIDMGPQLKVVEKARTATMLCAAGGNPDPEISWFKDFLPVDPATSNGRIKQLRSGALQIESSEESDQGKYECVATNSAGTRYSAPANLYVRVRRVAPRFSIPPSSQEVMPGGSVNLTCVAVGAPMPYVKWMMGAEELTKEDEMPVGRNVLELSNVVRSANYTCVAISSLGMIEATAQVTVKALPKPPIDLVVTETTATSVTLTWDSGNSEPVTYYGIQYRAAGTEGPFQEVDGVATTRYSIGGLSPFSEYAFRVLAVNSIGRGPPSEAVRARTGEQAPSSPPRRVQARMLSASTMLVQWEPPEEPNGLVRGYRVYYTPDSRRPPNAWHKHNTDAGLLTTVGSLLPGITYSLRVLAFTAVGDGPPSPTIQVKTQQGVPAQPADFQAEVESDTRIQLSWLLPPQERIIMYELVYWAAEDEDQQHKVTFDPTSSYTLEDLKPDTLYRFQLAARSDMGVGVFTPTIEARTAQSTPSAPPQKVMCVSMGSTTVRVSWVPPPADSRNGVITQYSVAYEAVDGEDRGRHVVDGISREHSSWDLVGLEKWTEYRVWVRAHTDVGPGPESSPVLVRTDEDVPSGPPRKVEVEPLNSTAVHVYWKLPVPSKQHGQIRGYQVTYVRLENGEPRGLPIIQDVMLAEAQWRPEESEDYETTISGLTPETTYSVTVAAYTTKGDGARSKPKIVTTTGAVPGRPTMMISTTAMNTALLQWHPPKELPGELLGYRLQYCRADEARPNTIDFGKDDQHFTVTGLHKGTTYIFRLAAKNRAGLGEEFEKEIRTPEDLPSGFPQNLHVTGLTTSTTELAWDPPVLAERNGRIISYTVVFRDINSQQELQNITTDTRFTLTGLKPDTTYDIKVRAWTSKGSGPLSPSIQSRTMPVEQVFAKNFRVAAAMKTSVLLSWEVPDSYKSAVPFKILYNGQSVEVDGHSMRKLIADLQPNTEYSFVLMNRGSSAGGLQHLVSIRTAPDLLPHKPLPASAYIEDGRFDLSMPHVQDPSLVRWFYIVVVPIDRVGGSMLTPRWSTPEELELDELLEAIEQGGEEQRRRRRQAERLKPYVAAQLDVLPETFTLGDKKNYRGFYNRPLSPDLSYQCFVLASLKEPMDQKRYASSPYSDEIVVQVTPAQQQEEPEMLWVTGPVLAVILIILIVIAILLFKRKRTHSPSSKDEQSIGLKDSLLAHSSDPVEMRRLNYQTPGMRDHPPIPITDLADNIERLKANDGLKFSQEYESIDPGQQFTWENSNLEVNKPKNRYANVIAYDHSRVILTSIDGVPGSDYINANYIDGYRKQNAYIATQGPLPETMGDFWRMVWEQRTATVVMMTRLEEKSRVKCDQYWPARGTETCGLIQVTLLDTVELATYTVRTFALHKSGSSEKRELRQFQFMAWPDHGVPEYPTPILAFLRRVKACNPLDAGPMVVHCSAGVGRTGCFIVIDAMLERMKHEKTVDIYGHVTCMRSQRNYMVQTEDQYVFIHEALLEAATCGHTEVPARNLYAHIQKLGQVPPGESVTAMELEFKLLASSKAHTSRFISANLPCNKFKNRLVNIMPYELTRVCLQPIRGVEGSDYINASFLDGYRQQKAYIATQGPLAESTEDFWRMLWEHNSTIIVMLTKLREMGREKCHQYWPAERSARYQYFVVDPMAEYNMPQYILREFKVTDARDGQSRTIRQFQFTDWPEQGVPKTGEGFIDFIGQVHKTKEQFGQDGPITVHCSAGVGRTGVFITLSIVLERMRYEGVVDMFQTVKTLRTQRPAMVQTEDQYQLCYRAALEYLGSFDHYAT
IC50 under 10 µM gets satisfied, anything at or over 10 µM gets not satisfied.

Some entries whose results are on file:
Cc1cc2nc3s/c(=C\c4ccc(-c5ccc(O)c(C(=O)O)c5)o4)c(=O)n3c2cc1C	satisfied
O=C(Cn1nnc(-c2ccccc2)n1)N/N=C/c1ccc(-c2ccc(O)c(C(=O)O)c2)o1	not satisfied
CSCCC(C(=O)O)N1C(=O)/C(=C\c2ccc(-c3ccc([N+](=O)[O-])cc3)o2)SC1=S (centres unmarked)	not satisfied
O=C1NC(=O)/C(=C/c2ccc(-c3ccc(O)c(C(=O)O)c3)o2)S1	not satisfied

Q: Could you please tell me whether IC50 recorded for O=C1NC(=S)NC(=O)C1=Cc1ccc(-c2ccc(C(=O)O)c(O)c2)o1 is less than 10 µM?
A: not satisfied

###

These records show pIC50 for TCPTP (Homo sapiens, UniProt P17706).
Just so you know, pIC50 here is -log10 of the concentration in molar units; reply with that number alone.

Consider the reported pIC50 for these compounds:
O=C1NC(=S)NC(=O)C1=Cc1ccc(-c2ccc(C(=O)O)c(O)c2)o1	4.96
O=C(Cn1nnc(-c2ccccc2)n1)N/N=C/c1ccc(-c2ccc(O)c(C(=O)O)c2)o1	4.64
O=C1NC(=O)/C(=C/c2ccc(-c3ccc(O)c(C(=O)O)c3)o2)S1	4.52
Cc1cc2nc3s/c(=C\c4ccc(-c5ccc(O)c(C(=O)O)c5)o4)c(=O)n3c2cc1C	4.96

Would you kindly look at the next entry?
Field pIC50 (TCPTP (Homo sapiens, UniProt P17706)), entry CSCCC(C(=O)O)N1C(=O)/C(=C\c2ccc(-c3ccc([N+](=O)[O-])cc3)o2)SC1=S (centres unmarked) : 3.71

###

Please consider the recorded pKd for YopH (Yersinia pestis) in what follows.
In simple prose, pKd is minus the logarithm base ten of a concentration in moles per litre.

Below: 3 compounds and their reported pKd.
O=C1NC(=O)/C(=C/c2ccc(-c3ccc(O)c(C(=O)O)c3)o2)S1 [Compound 5842540]	5.87
O=C(Cn1nnc(-c2ccccc2)n1)N/N=C/c1ccc(-c2ccc(O)c(C(=O)O)c2)o1 [Compound 5680029]	5.98
Cc1cc2nc3s/c(=C\c4ccc(-c5ccc(O)c(C(=O)O)c5)o4)c(=O)n3c2cc1C [Compound 5670901]	6.27

The record that follows has no pKd shown yet.
Recorded pKd for O=C1NC(=S)NC(=O)C1=Cc1ccc(-c2ccc(C(=O)O)c(O)c2)o1 [Compound 5557271] on YopH (Yersinia pestis) was 6.48

###

Target: LMPTP B (Homo sapiens)
Sequence (P24666 whole entry, looked up): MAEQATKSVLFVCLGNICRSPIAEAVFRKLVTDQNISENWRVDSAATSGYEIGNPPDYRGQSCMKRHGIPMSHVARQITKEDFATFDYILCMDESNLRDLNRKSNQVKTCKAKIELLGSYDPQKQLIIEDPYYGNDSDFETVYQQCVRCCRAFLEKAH
In this section we review reported IC50 values for a set of molecules.

Please review the entries below; each comes with its answer.
O=C(Cn1nnc(-c2ccccc2)n1)N/N=C/c1ccc(-c2ccc(O)c(C(=O)O)c2)o1	> 250 µM
CSCCC(C(=O)O)N1C(=O)/C(=C\c2ccc(-c3ccc([N+](=O)[O-])cc3)o2)SC1=S (centres unmarked)	> 300 µM
O=C1NC(=O)/C(=C/c2ccc(-c3ccc(O)c(C(=O)O)c3)o2)S1	215 µM
O=C1NC(=S)NC(=O)C1=Cc1ccc(-c2ccc(C(=O)O)c(O)c2)o1	> 250 µM

Entry Cc1cc2nc3s/c(=C\c4ccc(-c5ccc(O)c(C(=O)O)c5)o4)c(=O)n3c2cc1C , LMPTP B (Homo sapiens) data, IC50 value: > 250 µM

The measured values listed here are drawn from patent US20090312352A1.
